# System: Vero E6 cells
# experimental_setup: read-out: CC50 (95% CI), Vero E6 cells, value repeated in the SARS-CoV-2 (Omicron) line
readout_kind: CC50 (µM)
Numeric answer only, unit µM assumed.

The compound O=S(=O)(O)OCCCCCCCCCCCSCc1c(CSCCCCCCCCCCCOS(=O)(=O)O)c(CSCCCCCCCCCCCOS(=O)(=O)O)c(CSCCCCCCCCCCCOS(=O)(=O)O)c(CSCCCCCCCCCCCOS(=O)(=O)O)c1CSCCCCCCCCCCCOS(=O)(=O)O [B6C11S] , tested on Vero E6 cells, showed CC50 of 17.5

---

# System: HIV-1 (YU-2)
# run_description: HIV-1 (YU-2) inhibition assay on TZM-bl cells (luciferase)
# Assay type: cell-based
# experimental_setup: Human immunodeficiency virus 1, read-out: HIV-1 EC50 (95% CI)
readout_kind: pEC50
Reminder that pEC50 means the negative base-10 logarithm of the concentration expressed in mol/L.

These solved cases illustrate the format of a correct answer.
* CCc1c(CSCCCCCCOS(=O)(=O)O)c(CC)c(CSCCCCCCOS(=O)(=O)O)c(CC)c1CSCCCCCCOS(=O)(=O)O | 5.09
* O=S(=O)(O)OCCCCCCCCCSCC(CSCCCCCCCCCOS(=O)(=O)O)(CSCCCCCCCCCOS(=O)(=O)O)CSCCCCCCCCCOS(=O)(=O)O | 5.71
* O=S(=O)(O)OCCCCCCSCc1cc(CSCCCCCCOS(=O)(=O)O)cc(CSCCCCCCOS(=O)(=O)O)c1 | 5.26
* O=S(=O)(O)OCCCCCCCCCSCc1cc(CSCCCCCCCCCOS(=O)(=O)O)cc(CSCCCCCCCCCOS(=O)(=O)O)c1 | 5.20
* O=S(=O)(O)OCCCCCCCCCCCSCc1cc(CSCCCCCCCCCCCOS(=O)(=O)O)cc(CSCCCCCCCCCCCOS(=O)(=O)O)c1 [B3C11S] | 5.19

Looking up `CCc1c(CSCCCCCCCCCOS(=O)(=O)O)c(CC)c(CSCCCCCCCCCOS(=O)(=O)O)c(CC)c1CSCCCCCCCCCOS(=O)(=O)O` , I see its pEC50 listed as 5.21

Query O=S(=O)(O)OCCCCCCCCCCn1cc(COc2cc(OCc3cn(CCCCCCCCCCOS(=O)(=O)O)nn3)cc(OCc3cn(CCCCCCCCCCOS(=O)(=O)O)nn3)c2)nn1 [BTA3C10S] yields pEC50 of 5.28

---

# System: SARS-CoV-2 (Alpha)
# run_description: SARS-CoV-2 (alpha strain) inhibition plaque assay on Vero E6 cells
# Assay type: cell-based
# experimental_setup: Severe acute respiratory syndrome coronavirus 2, Vero C1008, read-out: SARS-CoV-2 (Alpha) EC50 (95% CI)
Readings of pEC50 for the listed compounds
Scale note: pEC50 = -log10(concentration in M).

Given item O=S(=O)(O)OCCCCCCSCc1cc(CSCCCCCCOS(=O)(=O)O)cc(CSCCCCCCOS(=O)(=O)O)c1 [B3C6S] , the value recorded as its pEC50 is 3.71

The compound identified as O=S(=O)(O)OCCCCCCCCCSCC(COS(=O)(=O)O)(CSCCCCCCCCCOS(=O)(=O)O)CSCCCCCCCCCOS(=O)(=O)O [P3C9S] registered its pEC50 at 4.99
